Data provenance is patent US9775844B2.

Please respond with reported pIC50 for every item in the list.
systemName: PI3K β (Homo sapiens (Human), UniProt P42338)
Sequence (P42338 whole entry): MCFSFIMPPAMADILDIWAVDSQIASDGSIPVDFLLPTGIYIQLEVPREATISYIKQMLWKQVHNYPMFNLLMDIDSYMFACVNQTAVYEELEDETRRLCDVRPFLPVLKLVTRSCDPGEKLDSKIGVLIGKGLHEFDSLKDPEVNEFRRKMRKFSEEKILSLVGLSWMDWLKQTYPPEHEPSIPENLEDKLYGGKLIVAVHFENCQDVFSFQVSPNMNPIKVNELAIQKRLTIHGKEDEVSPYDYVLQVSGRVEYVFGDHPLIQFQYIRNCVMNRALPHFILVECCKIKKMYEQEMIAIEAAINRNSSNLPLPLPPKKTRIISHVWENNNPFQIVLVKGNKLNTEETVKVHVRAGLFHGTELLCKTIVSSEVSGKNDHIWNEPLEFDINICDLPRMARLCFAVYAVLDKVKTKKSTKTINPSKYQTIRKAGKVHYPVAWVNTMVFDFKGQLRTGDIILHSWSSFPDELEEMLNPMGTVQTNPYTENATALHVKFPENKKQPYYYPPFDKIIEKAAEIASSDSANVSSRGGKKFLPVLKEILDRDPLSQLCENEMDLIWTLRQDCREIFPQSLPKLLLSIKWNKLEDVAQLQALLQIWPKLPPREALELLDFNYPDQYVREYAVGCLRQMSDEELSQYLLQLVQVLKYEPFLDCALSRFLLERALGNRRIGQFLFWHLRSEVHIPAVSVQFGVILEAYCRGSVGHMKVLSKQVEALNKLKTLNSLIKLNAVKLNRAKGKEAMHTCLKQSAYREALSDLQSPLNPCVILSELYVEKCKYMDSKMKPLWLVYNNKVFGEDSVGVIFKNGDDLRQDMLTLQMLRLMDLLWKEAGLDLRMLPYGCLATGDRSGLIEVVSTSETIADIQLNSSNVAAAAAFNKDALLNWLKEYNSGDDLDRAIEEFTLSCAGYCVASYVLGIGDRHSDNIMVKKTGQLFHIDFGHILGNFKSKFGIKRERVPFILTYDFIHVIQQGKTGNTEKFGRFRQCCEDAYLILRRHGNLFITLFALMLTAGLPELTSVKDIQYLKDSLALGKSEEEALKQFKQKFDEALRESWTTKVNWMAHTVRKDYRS
Sequence (P27986 whole entry partner): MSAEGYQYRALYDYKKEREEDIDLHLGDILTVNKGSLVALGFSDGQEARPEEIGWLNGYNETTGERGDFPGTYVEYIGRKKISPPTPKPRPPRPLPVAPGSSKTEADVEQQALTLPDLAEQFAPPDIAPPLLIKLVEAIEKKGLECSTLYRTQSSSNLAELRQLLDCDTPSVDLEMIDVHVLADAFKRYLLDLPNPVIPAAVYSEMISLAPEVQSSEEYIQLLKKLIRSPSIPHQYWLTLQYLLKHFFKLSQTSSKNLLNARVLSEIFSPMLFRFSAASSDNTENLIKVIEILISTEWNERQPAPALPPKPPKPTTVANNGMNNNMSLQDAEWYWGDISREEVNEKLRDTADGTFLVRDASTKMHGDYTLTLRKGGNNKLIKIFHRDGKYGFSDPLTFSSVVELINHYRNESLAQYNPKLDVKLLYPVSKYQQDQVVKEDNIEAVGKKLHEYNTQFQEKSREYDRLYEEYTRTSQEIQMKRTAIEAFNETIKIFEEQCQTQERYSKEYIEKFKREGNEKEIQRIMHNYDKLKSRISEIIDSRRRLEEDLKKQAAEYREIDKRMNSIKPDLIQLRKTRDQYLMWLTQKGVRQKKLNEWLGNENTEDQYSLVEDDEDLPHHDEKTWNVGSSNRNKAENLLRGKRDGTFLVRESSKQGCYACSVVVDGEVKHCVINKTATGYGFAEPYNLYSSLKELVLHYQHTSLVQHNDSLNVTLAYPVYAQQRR
pIC50: −log10 of the molar value.

Before answering, review these 3 worked examples.
# molecule, pIC50
data = [
    ("C[C@H](NC(=O)c1c(N)nn2cccnc12)c1cc2cccc(C#C[C@@H](C)O)c2c(=O)n1-c1ccccc1", "5.00 to 5.30"),
    ("C[C@H](NC(=O)c1c(N)nn2cccnc12)c1cc2cccc(C#CC(F)(F)F)c2c(=O)n1-c1ccccc1", "5.00 to 5.30"),
    ("CC[C@H](NC(=O)c1c(N)nn2cccnc12)c1cc2cccc(C#Cc3cnn(C)c3)c2c(=O)n1-c1ccccc1", "5.00 to 5.30"),
]

Give pIC50 for each listed item.
1. C[C@H](NC(=O)c1c(N)nn2cccnc12)c1cc2cccc(C#CCN3CCN(C)CC3)c2c(=O)n1-c1ccccc1
2. C[C@H](NC(=O)c1c(N)nn2cccnc12)c1cc2ccc3ccccc3c2c(=O)n1-c1ccccc1
3. C[C@H](NC(=O)c1c(N)nn2cccnc12)c1cc2cccc(C#CCN(C)C)c2c(=O)n1-c1ccccc1
4. Cc1cccc(-n2c([C@H](C)NC(=O)c3c(N)nn4cccnc34)cc3cccc(C#Cc4cnn(C)c4)c3c2=O)c1
5. C[C@H](NC(=O)c1c(N)nn2cccnc12)c1cc2cccc(C#Cc3ccccc3)c2c(=O)n1-c1ccccc1
6. C[C@H](NC(=O)c1c(N)nn2cccnc12)c1cc2cccc(CC(=O)c3cnn(C)c3)c2c(=O)n1-c1ccccc1
7. C[C@H](NC(=O)c1c(N)nn2cccnc12)c1cc2cccc(C#Cc3cncn3C)c2c(=O)n1-c1ccccc1
8. CC(=O)N1CCC(C#Cc2cccc3cc([C@H](C)NC(=O)c4c(N)nn5cccnc45)n(-c4ccccc4)c(=O)c23)CC1

1: 5.00 to 5.30; 2: 5.00 to 5.30; 3: 5.00 to 5.30; 4: 5.00 to 5.30; 5: 5.00 to 5.30; 6: 5.00 to 5.30; 7: 5.00 to 5.30; 8: 5.00 to 5.30
